Tested on: NCI-H322M
measurement protocol: relative viability (nuclei count vs DMSO), 5 days (fraction); higher = more cells survive
condition details: first compound 0.01581 µM
outcome measure: relative viability
Give a plain numeric answer without units written out.

Please review the following examples before continuing.
# compound, relative viability
data = [
    ("Nc1ccn([C@@H]2O[C@H](CO)[C@@H](O)[C@@H]2O)c(=O)n1 [Cytarabine] + CCNC(=O)c1noc(-c2cc(C(C)C)c(O)cc2O)c1-c1ccc(CN2CCOCC2)cc1 [Luminespib] (partner 0.01 µM)", 0.685),
    ("Nc1ccn([C@@H]2O[C@H](CO)[C@@H](O)[C@@H]2O)c(=O)n1 [Cytarabine] + C[C@@H](Oc1cc(-c2cnn(C3CCNCC3)c2)cnc1N)c1c(Cl)ccc(F)c1Cl [Crizotinib] (partner 1 µM)", 0.676),
]

[in] Give the value of relative viability reported for the following: COc1cc2nccc(Oc3ccc(NC(=O)Nc4cc(C)on4)c(Cl)c3)c2cc1OC [Tivozanib] + Nc1nc2[nH]cc(CCc3ccc(C(=O)N[C@@H](CCC(=O)O)C(=O)O)cc3)c2c(=O)[nH]1 [Pemetrexed] (partner 0.2 µM)
[out] 0.621

[in] Give the value of relative viability reported for the following: COc1cc2nccc(Oc3ccc(NC(=O)Nc4cc(C)on4)c(Cl)c3)c2cc1OC [Tivozanib] + O=C(c1cc(Cc2n[nH]c(=O)c3ccccc23)ccc1F)N1CCN(C(=O)C2CC2)CC1 [Olaparib] (partner 8 µM)
[out] 0.811

Values were extracted from the supplement of paper PMC10307832.
